experimental_target: T1, Aβ1–42 fibrils (UniProt P05067 672-713)
T1 construct: amyloid-β peptide Aβ1–42, cut from the amyloid precursor protein (APP), in fibrillar form; Aggregated (fibrillar) state of the same peptide as m15; also called fibrillar Aß1–42; Aβ fibrils; source: bought: JPT Biotech or Bachem AG (HPLC purified peptide); fibrils formed at 37°C (7 days in PBS pH 7.4 for SPR; five days in 50 mM Tris-HCl pH 7.4 for ELISA)
T1 sequence (P05067 672-713): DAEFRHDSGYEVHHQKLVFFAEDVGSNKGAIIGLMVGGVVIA
test: ELISA; Aβ1–42 fibrils coated on the plate (10 µg/ml, bicarbonate-carbonate buffer pH 9.6); D-compounds from 10 µg/ml, 2 h at 37°C; detected by anti-fluorescein isothiocyanate-AP, pNPP 2.5 h
measurement_conditions: both partners purified
Square brackets hold non-standard residues; d marks the D form. Primed or numbered codes have the meaning given here. Ends that are not written are not given here. FITC′ = fluorescein isothiocyanate (ϕ)
Measured % binding relative to ACI-80-Kϕ accompanies every entry in the list below.
The reply should be a number in %, with the unit left off.

Here are 2 binders together with their reported answers.
binder | unit_text | % binding relative to ACI-80-Kϕ
[dS][dH][dY][dR][dH][dI][dS][dP][dA][dQ][dK][dK](FITC′) (also: [19F]-4-fluorobenzoyl label, place not given here, D-enantiomeric derivative of ACI-80 (D1): N-terminal glutamine deleted (Q1X), V12K, added C-terminal lysine, fluorinated; also called D1-Q1X-V12K-K[^19F]ϕ; source: synthetic peptide, reacted with [^19F]-N-succinimidyl-4-fluorobenzoate (SFB), HPLC purified) [[^19F]-ACI-88-Kϕ] | % | 196
[dP][dS][dH][dY][dR][dH][dI][dS][dP][dA][dQ][dV][dK](FITC′) (D-enantiomeric derivative of ACI-80 (D1): Q1P, added C-terminal lysine; also called D1-Q1P-Kϕ; source: synthetic peptide (JPT Peptide Technologies GmbH, Berlin)) [ACI-83-Kϕ] | % | 167

*Q* # input binder: [dS][dF][dY][dR][dH][dI][dS][dP][dA][dQ][dV][dK](FITC′) (D-enantiomeric derivative of ACI-80 (D1): N-terminal glutamine deleted (Q1X), H3F, added C-terminal lysine; also called D1-Q1X-H3F-Kϕ; source: synthetic peptide (JPT Peptide Technologies GmbH, Berlin)) [ACI-85-Kϕ] ; wanted: its % binding relative to ACI-80-Kϕ
*A* 111
